Tested on: Mycobacterium tuberculosis Erdman (autoluminescent)
PROCEDURE TEXT: total FIC90 (Loewe) at 90% inhibition, three-drug combination (log2); higher = more antagonistic
EXPERIMENTAL SETUP: in vitro model: butyrate; time point: terminal (~4-5 doublings, model-specific)
For each of the compounds below, state its total FIC90.
One number for each entry.

COMPOUND	total FIC90
CC(C)/N=c1\cc2n(-c3ccc(Cl)cc3)c3ccccc3nc-2cc1Nc1ccc(Cl)cc1 [clofazimine] + COc1c(N2C[C@@H]3CCCN[C@@H]3C2)c(F)cc2c(=O)c(C(=O)O)cn(C3CC3)c12 [moxifloxacin] + O=[N+]([O-])c1cn2c(n1)OC[C@@H](OCc1ccc(OC(F)(F)F)cc1)C2 [pretomanid]	1.3
COc1c(N2C[C@@H]3CCCN[C@@H]3C2)c(F)cc2c(=O)c(C(=O)O)cn(C3CC3)c12 [moxifloxacin] + O=[N+]([O-])c1cn2c(n1)OC[C@@H](OCc1ccc(OC(F)(F)F)cc1)C2 [pretomanid] + CO[C@H]1/C=C/O[C@@]2(C)Oc3c(C)c(O)c4c(O)c(c(/C=N/N5CCN(C6CCCC6)CC5)c(O)c4c3C2=O)NC(=O)/C(C)=C\C=C\[C@H](C)[C@H](O)[C@@H](C)[C@@H](O)[C@@H](C)[C@H](OC(C)=O)[C@@H]1C [rifapentine]	0.784
CC(C)/N=c1\cc2n(-c3ccc(Cl)cc3)c3ccccc3nc-2cc1Nc1ccc(Cl)cc1 [clofazimine] + CC[C@@H](CO)NCCN[C@@H](CC)CO [ethambutol] + CO[C@H]1/C=C/O[C@@]2(C)Oc3c(C)c(O)c4c(O)c(c(/C=N/N5CCN(C6CCCC6)CC5)c(O)c4c3C2=O)NC(=O)/C(C)=C\C=C\[C@H](C)[C@H](O)[C@@H](C)[C@@H](O)[C@@H](C)[C@H](OC(C)=O)[C@@H]1C [rifapentine]	-0.0851

I would be grateful if you could provide total FIC90 for each of the following entries.
1. CC(C)/N=c1\cc2n(-c3ccc(Cl)cc3)c3ccccc3nc-2cc1Nc1ccc(Cl)cc1 [clofazimine] + CC[C@@H](CO)NCCN[C@@H](CC)CO [ethambutol] + COc1c(N2C[C@@H]3CCCN[C@@H]3C2)c(F)cc2c(=O)c(C(=O)O)cn(C3CC3)c12 [moxifloxacin]
2. CC(C)/N=c1\cc2n(-c3ccc(Cl)cc3)c3ccccc3nc-2cc1Nc1ccc(Cl)cc1 [clofazimine] + NC(=O)c1cnccn1 [pyrazinamide] + CO[C@H]1/C=C/O[C@@]2(C)Oc3c(C)c(O)c4c(O)c(c(/C=N/N5CCN(C6CCCC6)CC5)c(O)c4c3C2=O)NC(=O)/C(C)=C\C=C\[C@H](C)[C@H](O)[C@@H](C)[C@@H](O)[C@@H](C)[C@H](OC(C)=O)[C@@H]1C [rifapentine]
3. COc1nc2ccc(Br)cc2cc1[C@@H](c1ccccc1)[C@@](O)(CCN(C)C)c1cccc2ccccc12 [bedaquiline] + NC(=O)c1cnccn1 [pyrazinamide] + CO[C@H]1/C=C/O[C@@]2(C)Oc3c(C)c(O)c4c(O)c(c(/C=N/N5CCN(C6CCCC6)CC5)c(O)c4c3C2=O)NC(=O)/C(C)=C\C=C\[C@H](C)[C@H](O)[C@@H](C)[C@@H](O)[C@@H](C)[C@H](OC(C)=O)[C@@H]1C [rifapentine]
4. CC(C)/N=c1\cc2n(-c3ccc(Cl)cc3)c3ccccc3nc-2cc1Nc1ccc(Cl)cc1 [clofazimine] + NC(=O)c1cnccn1 [pyrazinamide] + CO[C@H]1/C=C/O[C@@]2(C)Oc3c(C)c(O)c4c(O)c(c(/C=N/N5CCN(C)CC5)c(O)c4c3C2=O)NC(=O)/C(C)=C\C=C\[C@H](C)[C@H](O)[C@@H](C)[C@@H](O)[C@@H](C)[C@H](OC(C)=O)[C@@H]1C [rifampicin]
5. CC[C@@H](CO)NCCN[C@@H](CC)CO [ethambutol] + COc1c(N2C[C@@H]3CCCN[C@@H]3C2)c(F)cc2c(=O)c(C(=O)O)cn(C3CC3)c12 [moxifloxacin] + CO[C@H]1/C=C/O[C@@]2(C)Oc3c(C)c(O)c4c(O)c(c(/C=N/N5CCN(C6CCCC6)CC5)c(O)c4c3C2=O)NC(=O)/C(C)=C\C=C\[C@H](C)[C@H](O)[C@@H](C)[C@@H](O)[C@@H](C)[C@H](OC(C)=O)[C@@H]1C [rifapentine]
6. COc1nc2ccc(Br)cc2cc1[C@@H](c1ccccc1)[C@@](O)(CCN(C)C)c1cccc2ccccc12 [bedaquiline] + CC(C)/N=c1\cc2n(-c3ccc(Cl)cc3)c3ccccc3nc-2cc1Nc1ccc(Cl)cc1 [clofazimine] + CC(=O)NC[C@H]1CN(c2ccc(N3CCOCC3)c(F)c2)C(=O)O1 [linezolid]
7. CC(C)/N=c1\cc2n(-c3ccc(Cl)cc3)c3ccccc3nc-2cc1Nc1ccc(Cl)cc1 [clofazimine] + NNC(=O)c1ccncc1 [isoniazid] + CO[C@H]1/C=C/O[C@@]2(C)Oc3c(C)c(O)c4c(O)c(c(/C=N/N5CCN(C)CC5)c(O)c4c3C2=O)NC(=O)/C(C)=C\C=C\[C@H](C)[C@H](O)[C@@H](C)[C@@H](O)[C@@H](C)[C@H](OC(C)=O)[C@@H]1C [rifampicin]

Response line:
1: 0.553; 2: 0.364; 3: 0.896; 4: 0.0714; 5: -0.223; 6: -0.466; 7: 0.248

Prompt line: Can you look up the measured total FIC90 of CC(C)/N=c1\cc2n(-c3ccc(Cl)cc3)c3ccccc3nc-2cc1Nc1ccc(Cl)cc1 [clofazimine] + CC(=O)NC[C@H]1CN(c2ccc(N3CCOCC3)c(F)c2)C(=O)O1 [linezolid] + COc1c(N2C[C@@H]3CCCN[C@@H]3C2)c(F)cc2c(=O)c(C(=O)O)cn(C3CC3)c12 [moxifloxacin] for me?
Response line: 1.05
